Would you kindly list Enzyme Activity Endpoint Assay: Fab′2 for each of these proteins?
# study.target: pooled human IgG (human IgG1, 2, 3 and 4)
Just the number plus its unit, please.

protein="PRT-247 (protein) MVTSVWTKGVTPPANFTQGEDVFHAPYVANQGWYDITKLFNGKDDLLCGAATAGNMLHWWFDQNKDQIKRYLEEHPEKQKINFNGEQMFDVKEAIDTKNHQLDSKLFEYFLEKAFPYLSTKHLGVFPDHVIDMFINGYRLSLTNHGPTPVKEGSKDPRGGIFDAVFTRGDQSKLLTSRHDFKEKNLKEISDLIKKELTEGKALGLSHTYANVRINHVINLWGADFDSNGNLKAIAVTDSDSNASIGMKKYFVGVNSSGKVAISAKEIKEDNIGAQVLGLFTLSTGQDSWNQTN" recorded_metric="Enzyme Activity Endpoint Assay: Fab′2" result="0 ng/µL"

Continue with the protein presented below.
Challenge: So what's the measured Enzyme Activity Endpoint Assay: Fab′2 for this one? PRT-400 (protein) MVTSVWTKGVTPPADFTQGEDVFHAPYDANQGWYDITKTFNGKDDLLCGAATAGNMLHWWFDQNKEYIEAYLKKHPEKQKIMFGDQELLDVRKAINTKGSQKNSELFNYFRDKAFPNLSARRLGVMPDLVLDMFINGYYLNVTKTQTTDVNRTYQEKDKRGGIFDAVFTRGDQSKLLTSRHDFKEKGLKEISDLIKQELTEGKALGLSHTYANVRINHVINLWGADFDSDGNLKAIYVTDSDSNASIGMKKYFVGVNSAGKVAISAKEIKEDNIGAQVLGLFTLSTGQDIWNQTN
Response given: 556 ng/µL

Origin of the recorded values: patent US20250027068
